Source listed as paper PMC9482650.

Target: MAGI2_4, Q86UL8
Sequence (Q86UL8 772-865): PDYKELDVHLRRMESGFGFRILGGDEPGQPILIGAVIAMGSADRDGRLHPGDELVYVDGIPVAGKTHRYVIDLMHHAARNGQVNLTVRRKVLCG
Experiment: holdup assay
Parameters: key: below the threshold = too weak to quantify, mostly under pKd 3.1 to 4
Conditions: plain residues with an end cap or a label only (N-terminal biotin on a linker: ado-ado)
readout: pKd
Provide a numeric answer; units are not to be included.

Field: example entries. Status: answers known.
HLRARKSEWV [GJD4, Q96KN9]; 3.71
QHKTQLQTLI [BPIFA2, Q96DR5]; 4.05
TPPAAKKSRI [BAZ1A, Q9NRL2]; 3.71

State the recorded pKd for this entry: PRAEAEDSFL [PDGFRB, P09619] 3.6

State the recorded pKd for this entry: RRRESYSTTV [EVI5, O60447] 4.63

State the recorded pKd for this entry: TASPAKETSF [SLC2A7, Q6PXP3] 3.52
